target: T1, Histidine-tagged human CD40 protein (hCD40-His) (human, UniProt P25942 21-193); assay: SPR, Biacore T200; antibody on Protein A chip, hCD40-His injected; 1:1 fit
T1 construct: not shown: histidine tag
T1 sequence (P25942 21-193 limits assumed): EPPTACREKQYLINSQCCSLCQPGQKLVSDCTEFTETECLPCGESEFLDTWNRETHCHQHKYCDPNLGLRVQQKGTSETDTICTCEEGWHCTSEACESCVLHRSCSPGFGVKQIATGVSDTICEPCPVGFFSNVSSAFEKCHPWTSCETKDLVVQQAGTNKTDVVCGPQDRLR
pKd: −log10 of the molar value.
Rule: Yes for pKd not less than 7, No for anything less.

>  <binder>
6A7-H3K3-IgG4 (antibody, V domains shown, Humanized) VH: QVQLVQSGAEVKKPGASVKVSCKASGYTFISYYIYWVRQAPGQGLEWIGGINPRNGGTNFNEKFKSRATLTVDTSISTAYMELSRLRSEDTAVYYCTRHGNGVYWGQGTTVTVSS VL: DVVMTQSPLSLPVTLGDPASISCRSSQSLLHSNGNTYLHWYQQRPGQSPNHLIYQVSNRFSGVPDRFSGSGSGTDFTLKISRVEAEDVGVYFCSQTTHVPWTFGGGTKLEIK

>  <cat>
Yes

$$$$

Hi, just wondering whether 7F10-H1K2-IgG4 (antibody, V domains shown, Humanized) VH: EVQLVESGGGLVQPGGSLRLSCATSGFTFSDYYMYWVRQAPGKRLEWVAYISYGGDSTFYPDTVRGRFTISRDNAKNSLYLQMNSLRAEDTAVYYCARPAPSAHSYYLDYWGQGTLLTVSS VL: DIQMTQSPSSLSASVGDRVTITCRASQDISNYLNWYQQKPGGAVKLLIYYTSRLHSGLPSRFSGSGSGTDYTFTISSLQPEDIATYYCQQGKTLPFTFASGTKLEIK shows pKd of 7 or higher.
No
